Sourced from patent US9227935B2

- Tested System: human DGAT1 (Homo sapiens, UniProt O75907)
Rule for this label: class 1 means IC50 is less than 3 µM; class 0 means IC50 is at least 3 µM.

# example entries with known answers
Cpd Smiles: CCCNC(=O)N1CC=C(c2ccc(NC(=O)c3ccccc3-c3ccc(C(F)(F)F)cc3)cc2)CC1
Tested System: human DGAT1 (Homo sapiens, UniProt O75907)
Class Name: class 0

Cpd Smiles: CC(C)c1ccccc1NC(=O)N1CCN(c2ccc(NC(=O)c3ccccc3-c3ccc(C(F)(F)F)cc3)cc2)CC1
Tested System: human DGAT1 (Homo sapiens, UniProt O75907)
Class Name: class 0

Cpd Smiles: Cc1ccc2c(c1)C(=O)c1cc(C)cc(C(=O)Nc3ccc(C4CCN(C(=O)Nc5c(Cl)cccc5Cl)CC4)cc3)c1-2
Tested System: human DGAT1 (Homo sapiens, UniProt O75907)
Class Name: class 1

Cpd Smiles: Cc1ccc2c(c1)C(=O)c1cc(C)cc(C(=O)Nc3ccc(N4CCN(C(=O)Nc5c(Cl)cccc5Cl)CC4)cc3)c1-2
Tested System: human DGAT1 (Homo sapiens, UniProt O75907)
Class Name: class 1

Cpd Smiles: O=C(O)c1cccc(C(=O)Nc2ccc(N3CCN(C(=O)Cc4c(Cl)cc(CN5CCCC5)cc4Cl)CC3)cc2)c1
Tested System: human DGAT1 (Homo sapiens, UniProt O75907)
Class Name: class 0

Cpd Smiles: O=C(Nc1ccc(C2CCN(C(=O)Nc3c(Cl)cccc3Cl)CC2)cc1)C1CNC1
Tested System: human DGAT1 (Homo sapiens, UniProt O75907)
Class Name: class 1

In: Does this compound meet the criterion IC50 < 3 µM? "O=C(Nc1ccc(C2=CCN(C(=O)NCc3ccccc3)CC2)cc1)c1ccccc1-c1ccc(C(F)(F)F)cc1"
Out: class 0

----------
- Tested System: human DGAT1 (Homo sapiens, UniProt O75907)
- Sequence (O75907 1-488): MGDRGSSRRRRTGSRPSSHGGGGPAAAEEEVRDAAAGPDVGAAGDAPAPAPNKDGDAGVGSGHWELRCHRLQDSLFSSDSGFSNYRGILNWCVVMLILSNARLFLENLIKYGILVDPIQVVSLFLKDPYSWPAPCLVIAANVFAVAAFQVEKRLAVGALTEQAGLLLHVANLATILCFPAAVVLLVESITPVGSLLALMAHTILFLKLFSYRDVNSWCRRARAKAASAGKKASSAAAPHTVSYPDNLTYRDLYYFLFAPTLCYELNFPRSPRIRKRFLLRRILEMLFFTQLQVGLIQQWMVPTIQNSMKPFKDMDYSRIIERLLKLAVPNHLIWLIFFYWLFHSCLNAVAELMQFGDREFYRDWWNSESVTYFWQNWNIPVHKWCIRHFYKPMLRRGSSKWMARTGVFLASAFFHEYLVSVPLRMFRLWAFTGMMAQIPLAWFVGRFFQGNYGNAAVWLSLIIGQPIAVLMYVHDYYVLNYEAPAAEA
Measured Metric: IC50 (nM)
Give your result in nM as a bare value.

Compound: O=C(Nc1ccc(N2CCN(C(=O)Nc3c(Cl)cccc3Cl)CC2)cc1)c1cccc(N2CCCC2)c1
Tested System: human DGAT1 (Homo sapiens, UniProt O75907)
IC50 / nM: 1.35
--
Compound: CCC(C)c1ccccc1NC(=O)N1CCN(c2ccc(NC(=O)c3ccccc3-c3ccc(C(F)(F)F)cc3)cc2)CC1 (stereo not shown)
Tested System: human DGAT1 (Homo sapiens, UniProt O75907)
IC50 / nM: 6460
--
Compound: CN1CC(C(=O)Nc2ccc(N3CCN(C(=O)Nc4c(Cl)cccc4Cl)CC3)cc2)CC1=O (stereo not shown)
Tested System: human DGAT1 (Homo sapiens, UniProt O75907)
IC50 / nM: 1120
--
Compound: O=C(Nc1ccc(N2CCN(C(=O)Nc3c(Cl)cccc3Cl)CC2)cc1)c1ccccc1-c1nc2ccccc2[nH]1
Tested System: human DGAT1 (Homo sapiens, UniProt O75907)
IC50 / nM: 56.2
--
Compound: Cc1cccc(Cl)c1NC(=O)N1CCC(c2ccc(NC(=O)c3ccccc3-c3ccc(C(F)(F)F)cc3)cc2)CC1
Tested System: human DGAT1 (Homo sapiens, UniProt O75907)
IC50 / nM: 1070
--
Compound: Cc1cc(C)c(NC(=O)N2CCC(c3ccc(NC(=O)c4ccccc4-c4ccc(C(F)(F)F)cc4)cc3)CC2)c(Cl)c1
Tested System: human DGAT1 (Homo sapiens, UniProt O75907)
IC50 / nM: 316
--
Compound: O=C(Nc1ccc(N2CCN(C(=S)Nc3c(Cl)cccc3Cl)CC2)cc1)c1ccccc1-c1ccc(C(F)(F)F)cc1
Tested System: human DGAT1 (Homo sapiens, UniProt O75907)
IC50 / nM: 214
--
Compound: Cc1cc(Br)cc(C)c1NC(=O)N1CCC(c2ccc(NC(=O)c3ccccc3-c3ccc(C(F)(F)F)cc3)cc2)CC1
Tested System: human DGAT1 (Homo sapiens, UniProt O75907)
IC50 / nM: 1950
--
Compound: O=C(Nc1ccc(N2CCN(C(=O)Nc3c(Cl)cccc3Cl)CC2)cc1)c1ccccc1-n1ccnc1
Tested System: human DGAT1 (Homo sapiens, UniProt O75907)
IC50 / nM: 1380
--
Compound: O=C(Nc1ccc(N2CCN(C(=O)Nc3c(F)cc(F)cc3Br)CC2)cc1)c1ccccc1-c1ccc(C(F)(F)F)cc1
Tested System: human DGAT1 (Homo sapiens, UniProt O75907)
IC50 / nM: 525

In: Return IC50 for the following compound: "O=C(Nc1ccc(N2CCN(C(=O)c3c(Cl)cccc3Cl)CC2)cc1)c1ccccc1-c1ccc(C(F)(F)F)cc1"
Out: 9120

In: Return IC50 for the following compound: "CCOC(=O)c1ccc(NC(=O)N2CCN(c3ccc(NC(=O)c4ccccc4-c4ccc(C(F)(F)F)cc4)cc3)CC2)cc1"
Out: 7760

In: Return IC50 for the following compound: "Cc1nc(C(=O)Nc2ccc(N3CCN(C(=O)Nc4c(Cl)cccc4Cl)CC3)cc2)c(-c2cccc(C(F)(F)F)c2)s1"
Out: 204

In: Return IC50 for the following compound: "O=C(Nc1ccc(N2CCN(C(=O)Nc3c(Cl)cccc3Cl)CC2)cc1)c1cccc(N2CCCCC2)c1"
Out: 1.74

In: Return IC50 for the following compound: "Cc1ccc(C)n1-c1ccc(C(=O)Nc2ccc(N3CCN(C(=O)Nc4c(Cl)cccc4Cl)CC3)cc2)cc1"
Out: 145

In: Return IC50 for the following compound: "CCc1nc(C)c(-c2ccccc2C(=O)Nc2ccc(C3CCN(C(=O)Nc4c(Cl)cccc4Cl)CC3)cc2)s1"
Out: 26.3

In: Return IC50 for the following compound: "Cc1ccc(C(=O)Nc2ccc(N3CCN(C(=O)Nc4c(Cl)cccc4Cl)CC3)cc2)c(-c2ccc(C(F)(F)F)cc2)c1"
Out: 58.9

In: Return IC50 for the following compound: "Cc1cc(C)c(NC(=O)N2CCC(c3ccc(NC(=O)c4ccccc4-c4ccc(C(F)(F)F)cc4)cc3)CC2)c(Br)c1"
Out: 631

In: Return IC50 for the following compound: "COc1ccc(CNC(=O)N2CC=C(c3ccc(NC(=O)c4ccccc4-c4ccc(C(F)(F)F)cc4)cc3)CC2)cc1"
Out: 4170

In: Return IC50 for the following compound: "Cc1cc(C)c(NC(=O)N2CCN(c3ccc(NC(=O)c4ccccc4-c4ccc(C(F)(F)F)cc4)cc3)CC2)c(Cl)c1"
Out: 170

In: Return IC50 for the following compound: "O=C(Nc1ccc(N2CCN(C(=O)Nc3c(Cl)cccc3Cl)CC2)cc1)c1cccc(N2CCS(=O)(=O)CC2)c1"
Out: 437

In: Return IC50 for the following compound: CC(C)(C)OC(=O)N1CCCC(C(=O)Nc2ccc(C3CCN(C(=O)Nc4c(Cl)cccc4Cl)CC3)cc2)C1 (stereo not shown)
Out: 17.4

----------
- Tested System: human DGAT1 (Homo sapiens)
- Sequence (O75907 1-488): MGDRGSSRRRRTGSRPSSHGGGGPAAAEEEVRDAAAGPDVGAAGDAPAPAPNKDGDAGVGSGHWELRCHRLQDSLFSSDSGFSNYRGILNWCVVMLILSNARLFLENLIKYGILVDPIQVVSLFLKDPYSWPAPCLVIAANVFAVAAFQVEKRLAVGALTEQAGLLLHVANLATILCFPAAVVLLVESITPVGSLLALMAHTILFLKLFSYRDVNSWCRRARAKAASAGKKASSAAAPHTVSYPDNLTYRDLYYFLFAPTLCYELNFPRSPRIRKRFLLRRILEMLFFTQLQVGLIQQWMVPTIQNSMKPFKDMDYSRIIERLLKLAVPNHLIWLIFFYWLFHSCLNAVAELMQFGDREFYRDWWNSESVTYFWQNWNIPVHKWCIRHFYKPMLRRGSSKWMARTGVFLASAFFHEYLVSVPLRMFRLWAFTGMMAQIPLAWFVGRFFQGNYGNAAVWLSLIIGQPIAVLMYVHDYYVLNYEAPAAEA
Measured Metric: log10 of IC50 (log10 of the value in nM)
Lab note - IC50 converted to log10 from values in nM.

Some compounds with recorded log10 of IC50:
Compound: O=C(Nc1cccc(N2CCCC2)c1)c1ccc(N2CCN(C(=O)Nc3c(Cl)cc(CCN4CCCC4)cc3Cl)CC2)cc1 [Compound 129]
Tested System: human DGAT1 (Homo sapiens)
Readout Value: 0.73
//
Compound: CC(C)(C)OC(=O)N1CC(C(=O)Nc2ccc(C3CCN(C(=O)Nc4c(Cl)cccc4Cl)CC3)cc2)C1 [Compound 1]
Tested System: human DGAT1 (Homo sapiens)
Readout Value: 0.91
//
Compound: O=C(Nc1ccc(N2CCN(C(=O)Nc3ccccc3[N+](=O)[O-])CC2)cc1)c1ccccc1-c1ccc(C(F)(F)F)cc1 [Compound 92]
Tested System: human DGAT1 (Homo sapiens)
Readout Value: 3.37
//
Compound: Cc1cc(C)c(NC(=O)N2CCN(c3ccc(NC(=O)c4ccccc4-c4ccc(C(F)(F)F)cc4)cc3)CC2)c(Br)c1 [Compound 103]
Tested System: human DGAT1 (Homo sapiens)
Readout Value: 2.30
//
Compound: O=C(Nc1ccc(N2CCN(C(=O)Nc3c(Cl)cccc3Cl)CC2)cc1)c1ccc(-c2nnn[nH]2)cc1 [Compound 33]
Tested System: human DGAT1 (Homo sapiens)
Readout Value: 3.29
//
Compound: O=C(Nc1ccc(N2CCN(C(=O)Nc3c(Cl)cccc3Cl)CC2)cc1)c1cccc(N2CCCCS2(=O)=O)c1 [Compound 41]
Tested System: human DGAT1 (Homo sapiens)
Readout Value: 1.28
//
Compound: CSc1ccccc1NC(=O)N1CCN(c2ccc(NC(=O)c3ccccc3-c3ccc(C(F)(F)F)cc3)cc2)CC1 [Compound 93]
Tested System: human DGAT1 (Homo sapiens)
Readout Value: 3.68
//
Compound: CCOC(=O)Cc1cccc(C(=O)Nc2ccc(N3CCN(C(=O)Nc4c(Cl)cc(CN5CCCCC5)cc4Cl)CC3)cc2)c1 [Compound 138]
Tested System: human DGAT1 (Homo sapiens)
Readout Value: 1.06
//
Compound: O=C(Nc1ccc(N2CCN(C(=O)Nc3ccccc3Cl)CC2)cc1)c1ccccc1-c1ccc(C(F)(F)F)cc1 [Compound 89]
Tested System: human DGAT1 (Homo sapiens)
Readout Value: 3.23
//
Compound: O=C(Nc1ccc(N2CCN(C(=O)Nc3c(Cl)cccc3Cl)CC2)cc1)c1ccccc1-c1nnn[nH]1 [Compound 32]
Tested System: human DGAT1 (Homo sapiens)
Readout Value: 3.52

Next:
In: Find log10 of IC50 for COc1ccccc1NC(=O)N1CCN(c2ccc(NC(=O)c3ccccc3-c3ccc(C(F)(F)F)cc3)cc2)CC1 [Compound 80] on human DGAT1 (Homo sapiens) and write it down.
Out: 3.74
